Tested on: OVCAR-8
Assay: NCI tumour cell line growth inhibition, 48 h
Active and inactive are the calls of the source. Cut-off read from the data, not from the text of the source: active = GI50 up to about 1.1 µM and inactive = higher.
Catalogue of GI50 values

{"COMPOUND": "COc1cc2c[n+](C)c3c(c2cc1OC)Cc1cc2c(cc1-3)OCO2", "ASSAYED_SYSTEM": "OVCAR-8", "READOUT_KIND": "GI50", "VALUE_REPORTED": "> 100 µM (inactive)"}
{"COMPOUND": "CCOC(=O)C1C[C@H]2CO[C@H](c3ccccc3)N2C1=O (stereo partly drawn)", "ASSAYED_SYSTEM": "OVCAR-8", "READOUT_KIND": "GI50", "VALUE_REPORTED": "> 100 µM (inactive)"}
{"COMPOUND": "COC(=O)[C@@H](N1C(=O)c2ccccc2C1=O)C1(C)CC(Cl)=NO1 (stereo partly drawn)", "ASSAYED_SYSTEM": "OVCAR-8", "READOUT_KIND": "GI50", "VALUE_REPORTED": "19.1 µM (inactive)"}
{"COMPOUND": "COc1ccccc1OCC(=N/NC(=O)c1ccncc1)/N=C/c1cccnc1", "ASSAYED_SYSTEM": "OVCAR-8", "READOUT_KIND": "GI50", "VALUE_REPORTED": "> 100 µM (inactive)"}
{"COMPOUND": "O=C(Cn1cc(F)c(=O)[nH]c1=O)C12CC3CC(CC(C3)C1)C2", "ASSAYED_SYSTEM": "OVCAR-8", "READOUT_KIND": "GI50", "VALUE_REPORTED": "> 100 µM (inactive)"}

Request: Requested read-out GI50, target or system OVCAR-8, entry `Oc1ccc(O)c(CNc2ccccc2)c1`
Response: 8.02 µM (inactive)

Request: Please give the result for `COc1ccc(CCNCc2cccc(OC)c2OC)cc1OC` too.
Response: > 100 µM (inactive)

Request: // query: `NCCNCCCCCCNC(=O)c1cccc2cc3ccccc3nc12`
Response: 2.03 µM (inactive)

Request: Now the same for O=C1OC(Cc2ccccc2)(N2CCCC2=O)C1c1ccccc1 (stereo not drawn)
Response: > 100 µM (inactive)

Request: Now consider CC1C2CC(CC(=O)N2)C1(C)C (stereo not drawn) and answer again.
Response: > 100 µM (inactive)

Request: Entry to check: `O=C(N/C(=C\c1ccccc1)c1nc2ccccc2c(=O)o1)c1ccccc1`
Response: > 57.7 µM (inactive)

Request: Continue with `O=C1C=CC[C@H]2O[C@@H](COC(=O)Cc3ccccc3)C[C@H]2O1`
Response: 28.7 µM (inactive)

Request: Same question for `CCOC(=O)[C@H](O)[C@@H](O)C(=O)NCc1ccc(C(=O)c2ccccc2)cc1` please.
Response: > 100 µM (inactive)

Request: Item: `CN(C)C(=O)O/N=C1/C(=C2/C(=O)Nc3ccccc32)Nc2ccccc21`
Response: 9.75 µM (inactive)

Request: Repeat with `O=C1CC(=O)c2c(N3CCCC3)sc(N3CCCC3)c21`
Response: > 100 µM (inactive)

Request: What do you have for COc1ccc2c(c1)C(OC)C1c3c(cc4c(c3-2)OCO4)CCN1C (stereo not drawn) ?
Response: 2.5 µM (inactive)

Request: Follow-up item: `O=C1c2cscc2C(=O)c2c(OCc3ccccc3)ccc(OCc3ccccc3)c21`
Response: > 100 µM (inactive)
